Below is a list of entries, each paired with its recorded IC50 value.
- Tested on: PC-8
- test.summary: Tested in vitro against PC-8 human lung adenocarcinoma
- Assay type: functional, cell-based
Write the answer as a number in µM, unit excluded.

sample.smiles: Cl.N#C[C@H]1[C@H](O)[C@@H](CO)O[C@H]1n1ccc(N)nc1=O
IC50 (µM): 15.9

Next compound, please.
Param item = Nc1ccn([C@@H]2O[C@H](CO)[C@@H](O)[C@@H]2O)c(=O)n1 ; retrieve measured IC50.
1.1

* * *

Below is a list of entries, each paired with its recorded IC50 value.
- Tested on: HOS-TE85
- test.summary: Tested in vitro against MNNG/HOS cell line human osteosarcoma
- Format: functional, cell-based

sample.smiles: N#CC1=C[C@@H](CO)O[C@H]1n1ccc(N)nc1=O
obs.value: 205 µM

sample.smiles: N#C[C@H]1[C@H](O)[C@@H](CO)O[C@H]1n1cnc2c(N)ncnc21
obs.value: > 360 µM

Param item = Cl.N#C[C@H]1[C@H](O)[C@@H](CO)O[C@H]1n1ccc(N)nc1=O ; retrieve measured IC50.
23.6 µM

* * *

- System: MKN-45
- test.summary: Tested in vitro against MKN-45 human stomach adenocarcinoma
- Type: functional, cell-based
- experimental.parameters: MKN-45, Stomach
Below is a list of entries, each paired with its recorded IC50 value.
Write the answer as a number in µM, unit excluded.

Study these solved cases before continuing.
compound: Cl.N#C[C@H]1[C@H](O)[C@@H](CO)O[C@H]1n1ccc(N)nc1=O
IC50, µM: 15.9

compound: N#CC1=C[C@@H](CO)O[C@H]1n1ccc(N)nc1=O
IC50, µM: 376

Could you share what IC50 was measured for Nc1ccn([C@@H]2O[C@H](CO)[C@@H](O)[C@@H]2O)c(=O)n1 [CYTARABINE] , tested on MKN-45?
57.6

* * *

Below is a list of entries, each paired with its recorded IC50 value.
- System: L1210
- test.summary: Tested in vitro inhibitory activity against murine leukemia L1210
- Type: functional, cell-based
- experimental.parameters: Mus musculus
Write the answer as a number in µM, unit excluded.

Study these solved cases before continuing.
sample.smiles: CC(=O)Nc1ccn([C@@H]2O[C@H](CO)C=C2C#N)c(=O)n1
IC50 (µM): 68.8

sample.smiles: N#CC1=C[C@@H](CO)O[C@H]1n1ccc(N)nc1=O
IC50 (µM): 261

sample.smiles: CC(=O)Nc1ccn([C@@H]2O[C@H](CO)[C@@H](O)[C@@H]2C#N)c(=O)n1
IC50 (µM): 25.3

sample.smiles: N#C[C@H]1[C@H](O)[C@@H](CO)O[C@H]1n1cnc2c(N)ncnc21
IC50 (µM): 5.8

sample.smiles: Cl.N#C[C@H]1[C@H](O)[C@@H](CO)O[C@H]1n1ccc(N)nc1=O
IC50 (µM): 0.53

Param item = Nc1ccn([C@@H]2O[C@H](CO)[C@@H](O)[C@@H]2O)c(=O)n1 ; retrieve measured IC50.
0.05

Likewise for Cc1cn([C@@H]2O[C@H](CO)C=C2C#N)c(=O)[nH]c1=O ?
12.4

* * *

- Tested on: MCF7
- test.summary: Tested in vitro against MCF-7 human breast adenocarcinoma
- Assay type: functional, cell-based
Below is a list of entries, each paired with its recorded IC50 value.
Write the answer as a number in nM, unit excluded.

Study these solved cases before continuing.
compound: Nc1ccn([C@@H]2O[C@H](CO)[C@@H](O)[C@@H]2O)c(=O)n1 [CYTARABINE]
unit.of.measurement: nM
obs.value: 620
//
compound: Cl.N#C[C@H]1[C@H](O)[C@@H](CO)O[C@H]1n1ccc(N)nc1=O
unit.of.measurement: nM
obs.value: 1750

Next compound, please.
Param item = N#CC1=C[C@@H](CO)O[C@H]1n1ccc(N)nc1=O ; retrieve measured IC50.
299000
